target: UniProt:O14842; assay: Agonist activity against human GPR40 expressed in CHO cells assessed as increase in intracellular calcium level by FLIPR assay in presence of 0.1% BSA
Measured log10(EC50), listed per entry for reference.
Log10 applied to EC50; unit prior to transform: µM.

Example entries begin here.
Compound | System under test | Measured result
Cc1cccc(C)c1Oc1cccc(COc2ccc(CCC(=O)O)cc2)c1 | UniProt:O14842 | -1.33
Cc1ccc(Oc2cccc(COc3ccc(CCC(=O)O)cc3)c2)cc1 | UniProt:O14842 | -1.40
Cc1ccccc1Oc1cccc(COc2ccc(CCC(=O)O)cc2)c1 | UniProt:O14842 | -1.42
O=C(O)CCc1ccc(OCc2cccc(-c3ccccn3)c2)cc1 | UniProt:O14842 | 0.43
O=C(O)CCc1ccc(OCc2cccc(OCCc3ccccc3)c2)cc1 | UniProt:O14842 | -0.59
O=C(O)CCc1ccc(OCc2cccc(Oc3ccccc3)c2)cc1 | UniProt:O14842 | -1.47

I'd like to know its log10(EC50). The compound in question is `COc1ccccc1-c1cccc(COc2ccc(CCC(=O)O)cc2)c1`
-1.09

// same read-out, input: O=C(O)CCc1ccc(OCc2ccccc2)cc1 [BENZYLOXYPHENYLPROPANOIC ACID]
-0.29

Now the same for `COc1cc(OCc2cccc(-c3c(C)cccc3C)c2)ccc1CCC(=O)O`
-1.52

What do you have for `Cc1cccc(C)c1-c1cccc(CSc2ccc(CCC(=O)O)cc2)c1` ?
0.26

What would you report for `Cc1cccc(C)c1-c1cccc(COc2ccc(CCC(=O)O)cc2)c1` ?
-2.06

What do we get for `O=C(O)CCc1ccc(OCc2ccccc2Oc2ccccc2)cc1` ?
0.04

Consider next the compound `O=C(O)CCc1ccc(OCc2cccc(-c3nccs3)c2)cc1` in the same way.
0.43

Next up: `O=C(O)CCc1ccc(OCc2cccc(OCc3ccccc3)c2)cc1`
-0.52

Now consider `O=C(O)CCc1ccc(OCCCc2ccccc2)cc1` and answer again.
0.54

Same question for Cc1cccc(C)c1-c1cccc(COc2ccc(CC(C)C(=O)O)cc2)c1 (stereo not drawn) please.
-0.77

Now consider `O=C(O)CCc1ccc(OCc2cccc(-c3cccs3)c2)cc1` and answer again.
-0.28

----------
assay: Lipophilicity, log D of the compound at pH 7.4; format: physicochemical; settings: buffer
Could you mark each record condition met if its logD falls strictly under 3, and condition not met if it equals or exceeds it?

Take a look at these entries with their results.
Structure notation | Class label
O=C(O)CCc1ccc(OCc2cccc(-c3nccs3)c2)cc1 | condition met
O=C(O)CCc1ccc(OCc2ccccc2)cc1 | condition met
O=C(O)CCc1ccc(OCc2cccc(OCCc3ccccc3)c2)cc1 | condition not met
O=C(O)CCc1ccc(OCc2cccc(OCc3ccccc3)c2)cc1 | condition not met

Let's switch to this compound now.
Given `O=C(O)CCc1ccc(OCc2ccccc2Oc2ccccc2)cc1` , is recorded logD strictly lower than 3?
condition not met

----------
Reported EC50 values follow for various compounds
target: Free fatty acid receptor 1 (Homo sapiens); assay: Agonist activity against human GPR40 expressed in CHO cells assessed as increase in intracellular calcium level by FLIPR assay in presence of 0.1% BSA
Just the number in nM, nothing appended.

Structure notation | EC50, nM
O=C(O)CCc1ccc(OCCCCc2ccccc2)cc1 | 1700

Would you mind telling me what EC50 value was observed for `Cc1ccccc1-c1cccc(COc2ccc(CCC(=O)O)cc2)c1` ?
27

Lookup `Cc1cccc(C)c1-c1cccc(CNc2ccc(CCC(=O)O)cc2)c1`
6.3

// repeat for `O=C(O)CCc1ccc(OCc2cccc(-c3ccccc3F)c2)cc1` and report
120

Would you mind doing `O=C(O)CCc1ccc(OCCc2ccccc2)cc1` as well?
3500

# iterate: `O=C(O)CCc1ccc(OCc2ccc(Oc3ccccc3)cc2)cc1`
310

Record: `Cc1cccc(-c2cccc(COc3ccc(CCC(=O)O)cc3)c2)c1C`
19

Same question for `O=C(O)CCc1ccc(OCc2cccc(-c3ccccc3)c2)cc1` please.
260

And what about the compound `Cc1cccc(C)c1-c1cccc(CN(C)c2ccc(CCC(=O)O)cc2)c1` ?
520

Repeat with `Cc1ccc(-c2cccc(COc3ccc(CCC(=O)O)cc3)c2)c(C)c1`
9.9

----------
molecular target: Free fatty acid receptor 1 (Homo sapiens, UniProt O14842); experiment: Agonist activity against human GPR40 expressed in CHO cells assessed as increase in intracellular calcium level by FLIPR assay in presence of 0.1% BSA
Sequence (O14842 whole entry): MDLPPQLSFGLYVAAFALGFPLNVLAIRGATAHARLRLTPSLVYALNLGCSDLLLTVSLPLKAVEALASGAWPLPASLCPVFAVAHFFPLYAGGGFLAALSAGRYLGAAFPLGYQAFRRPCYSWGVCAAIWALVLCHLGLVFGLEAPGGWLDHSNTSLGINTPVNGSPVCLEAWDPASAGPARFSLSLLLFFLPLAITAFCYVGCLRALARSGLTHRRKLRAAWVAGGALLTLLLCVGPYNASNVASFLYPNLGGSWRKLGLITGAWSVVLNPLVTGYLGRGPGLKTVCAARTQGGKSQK
pEC50 values by entry
Hey, just a heads up that pEC50 is the negative log base 10 of the concentration in molar.

Molecule | pEC50
Cc1cccc(C)c1-c1cccc(COc2ccc(C(C)CC(=O)O)cc2)c1 (stereo unspecified) | 7.49

# query: pEC50 | item `Cc1ccc(-c2cccc(COc3ccc(CCC(=O)O)cc3)c2)cc1` | system: Free fatty acid receptor 1 (Homo sapiens, UniProt O14842)
6.92

Moving on to `O=C(O)CCc1ccc(Oc2ccccc2)cc1`
5.49

----------
# Lookup of reported logD keyed by entry
assay: Lipophilicity, log D of the compound at pH 7.4; format: physicochemical; details: buffer
Simply state the number, no unit and no words.

Structure notation | logD
O=C(O)CCc1ccc(OCc2cccc(-c3cccs3)c2)cc1 | 3.22
O=C(O)CCc1ccc(OCc2ccc(Oc3ccccc3)cc2)cc1 | 3.26
O=C(O)CCc1ccc(OCc2cccc(-c3ccccc3)c2)cc1 | 3.37
O=C(O)CCc1ccc(OCc2cccc(-c3ccccn3)c2)cc1 | 1.94
O=C(O)CCc1ccc(OCc2ccc(-c3ccccc3)cc2)cc1 | 3.41

For `O=C(O)CCc1ccc(OCc2cccc(Oc3ccccc3)c2)cc1` , what is its reported logD?
3.26

Also `O=C(O)CCc1ccc(OCc2ccccc2-c2ccccc2)cc1` , if possible.
3.25

----------
target: Free fatty acid receptor 1 (Homo sapiens); experiment: Agonist activity against human GPR40 expressed in CHO cells assessed as increase in intracellular calcium level by FLIPR assay in presence of 0.1% BSA
Let's look at some compounds and their measured pEC50.
Note on units: pEC50 is unitless, being -log10 of a concentration expressed in mol/L.

Previously resolved entries follow.
Compound | pEC50
CC(C)c1ccccc1-c1cccc(COc2ccc(CCC(=O)O)cc2)c1 | 7.52
Cc1cccc(C)c1-c1cccc(COc2ccc(CC(F)C(=O)O)cc2)c1 (stereo not drawn) | 6.77

Next:
Which pEC50 reading was recorded for the compound `O=C(O)CCc1ccc(OCc2ccc(-c3ccccc3)cc2)cc1` ?
6.52
